Data provenance is the supplement of paper PMC6607015.

Listed here: items and their measured LBPA endosome anti-LBPA integrated intensity (z-score).
Tested on: HeLa MZ
PROCEDURE_SUMMARY: LBPA endosome anti-LBPA integrated intensity (sum per cell), Z-score; higher = more LBPA staining
EXPERIMENTAL_SETUP: compound concentration in added solution (µM; 5 µl added to 20 µl cells): 10; 18 h
Structures can show the parent of a compound that is named as a salt.

{"MOLECULE": "COc1ccc(C2CNC(=O)C2)cc1OC1CCCC1 (stereo not drawn) [Rolipram]", "RECORDED_MEASUREMENT": -0.432}
{"MOLECULE": "N=C(N)NS(=O)(=O)c1ccc(N)cc1 [Sulfaguanidine]", "RECORDED_MEASUREMENT": -1.14}
{"MOLECULE": "Cc1noc(NS(=O)(=O)c2ccc(N)cc2)c1C [Sulfisoxazole]", "RECORDED_MEASUREMENT": -0.742}
{"MOLECULE": "CN[C@@H]1[C@H](O[C@H]2[C@H](O[C@H]3[C@H](O)[C@@H](O)[C@H](N=C(N)N)[C@@H](O)[C@@H]3N=C(N)N)O[C@@H](C)[C@]2(O)C=O)O[C@@H](CO)[C@H](O)[C@H]1O [Streptomycin sulfate]", "RECORDED_MEASUREMENT": -1.38}
{"MOLECULE": "COCCCC/C(=N\\OCCN)c1ccc(C(F)(F)F)cc1 [Fluvoxamine maleate]", "RECORDED_MEASUREMENT": 2.11}

Data request: What value of LBPA endosome anti-LBPA integrated intensity (z-score) has been recorded for this entry: COc1ccc2c(c1)N(C[C@H](C)CN(C)C)c1ccccc1S2 [Methotrimeprazine maleat salt]
Data returned: 1.48

Data request: What value of LBPA endosome anti-LBPA integrated intensity (z-score) has been recorded for this entry: NC(=O)N1c2ccccc2C=Cc2ccccc21 [Carbamazepine]
Data returned: -0.106

Data request: What value of LBPA endosome anti-LBPA integrated intensity (z-score) has been recorded for this entry: Cc1cccc(Nc2ccccc2C(=O)O)c1C [Mefenamic acid]
Data returned: -1.34

Data request: What value of LBPA endosome anti-LBPA integrated intensity (z-score) has been recorded for this entry: c1cnc(N2CCN(Cc3ccc4c(c3)OCO4)CC2)nc1 [Piribedil hydrochloride]
Data returned: 1.95

====

Test system: A431
PROCEDURE_SUMMARY: whole-cell filipin (free cholesterol) integrated intensity, Z-score; higher = more cholesterol staining
EXPERIMENTAL_SETUP: compound concentration in added solution (µM; 5 µl added to 20 µl cells): 10; 18 h
Structures can show the parent of a compound that is named as a salt.
MEASUREMENT_LABEL: whole-cell filipin (z-score)
API doc: respond with a numeric literal and nothing else, no unit.

Reference set, count: 6
{"COMPOUND": "CN(C)CCN(Cc1cccs1)c1ccccn1 [Methapyrilene hydrochloride]", "whole-cell filipin (z-score)": -0.777}
{"COMPOUND": "COc1ccccc1N1CCN(CC(O)COc2cccc3ccccc23)CC1 (configuration not stated) [Naftopidil dihydrochloride]", "whole-cell filipin (z-score)": 0.857}
{"COMPOUND": "O=C(N[C@H](CO)[C@H](O)c1ccc([N+](=O)[O-])cc1)C(Cl)Cl", "whole-cell filipin (z-score)": -0.952}
{"COMPOUND": "NS(=O)(=O)Cc1noc2ccccc12 [Zonisamide]", "whole-cell filipin (z-score)": -0.0819}
{"COMPOUND": "O=C(O)[C@H]1/C(=C/CO)O[C@@H]2CC(=O)N21 [Potassium clavulanate]", "whole-cell filipin (z-score)": 0.227}
{"COMPOUND": "CCOC(=O)Nc1ccc2c(c1)N(C(=O)CCN1CCOCC1)c1ccccc1S2 [Moricizine hydrochloride]", "whole-cell filipin (z-score)": -0.0401}

Data request: Test system A431; read-out whole-cell filipin (z-score); what value for C[n+]1ccccc1/C=N/O [Pralidoxime chloride] ?
Data returned: -0.432

Data request: Test system A431; read-out whole-cell filipin (z-score); what value for CCCc1cc(=O)[nH]c(=S)[nH]1 ?
Data returned: -0.7

Data request: Test system A431; read-out whole-cell filipin (z-score); what value for CC(C)(Sc1cc(C(C)(C)C)c(O)c(C(C)(C)C)c1)Sc1cc(C(C)(C)C)c(O)c(C(C)(C)C)c1 ?
Data returned: -0.766

====

Tested on: A431
PROCEDURE_SUMMARY: LBPA endosome anti-LBPA integrated intensity (sum per cell), Z-score; higher = more LBPA staining
EXPERIMENTAL_SETUP: compound concentration in added solution (µM; 5 µl added to 20 µl cells): 10; 18 h
Where a name gives a salt, the structure may show the parent alone.
Listed here: items and their measured LBPA endosome anti-LBPA integrated intensity (z-score).
API doc: respond with a numeric literal and nothing else, no unit.

Reference set, count: 4
{"MOLECULE": "Fc1ccc(C(c2ccc(F)cc2)N2CCN(C/C=C/c3ccccc3)CC2)cc1 [Flunarizine dihydrochloride]", "RECORDED_MEASUREMENT": 0.53}
{"MOLECULE": "CN1CCCN=C1/C=C/c1cccc(O)c1 [Oxantel pamoate]", "RECORDED_MEASUREMENT": -0.563}
{"MOLECULE": "C[C@]1(Cn2ccnn2)[C@H](C(=O)O)N2C(=O)C[C@H]2S1(=O)=O", "RECORDED_MEASUREMENT": -0.572}
{"MOLECULE": "CN(C)CCC[C@@]1(c2ccc(F)cc2)OCc2cc(C#N)ccc21", "RECORDED_MEASUREMENT": -0.359}

Data request: What value of LBPA endosome anti-LBPA integrated intensity (z-score) has been recorded for this entry: COc1c(O[C@@H]2O[C@H](CO)[C@@H](O)[C@H](O)[C@H]2O)cc2c(c1OC)-c1ccc(SC)c(=O)cc1[C@@H](NC(C)=O)CC2 [Thiocolchicoside]
Data returned: -0.551

Data request: What value of LBPA endosome anti-LBPA integrated intensity (z-score) has been recorded for this entry: CCCc1nc2c(C)cc(-c3nc4ccccc4n3C)cc2n1Cc1ccc(-c2ccccc2C(=O)O)cc1
Data returned: -0.132

Data request: What value of LBPA endosome anti-LBPA integrated intensity (z-score) has been recorded for this entry: COc1c2occc2c(OC)c2c(=O)cc(C)oc12
Data returned: -0.364

Data request: What value of LBPA endosome anti-LBPA integrated intensity (z-score) has been recorded for this entry: CC(C(=O)O)c1cccc(Oc2ccccc2)c1 (centres undefined) [Fenoprofen calcium salt dihydrate]
Data returned: -0.519

====

Test system: HeLa MZ
PROCEDURE_SUMMARY: whole-cell filipin (free cholesterol) integrated intensity, Z-score; higher = more cholesterol staining
EXPERIMENTAL_SETUP: compound concentration in added solution (µM; 5 µl added to 20 µl cells): 10; 18 h
Threshold rule: whole-cell filipin (z-score) greater than or equal to -0.3 is 1 (yes); below that, 0 (no).

Some solved cases for reference:
{"COMPOUND": "CC[C@]12CCCN3CCc4c(n(c5ccccc45)[C@@](O)(C(=O)OC)C1)[C@@H]32 [Vincamine]", "TESTED_SYSTEM": "HeLa MZ", "CATEGORY_LABEL": "0 (no)"}
{"COMPOUND": "CC(C)C(=O)c1c(C(C)C)nn2ccccc12 [Ibudilast]", "TESTED_SYSTEM": "HeLa MZ", "CATEGORY_LABEL": "1 (yes)"}
{"COMPOUND": "COc1ccc(Cl)cc1C(=O)NCCc1ccc(S(=O)(=O)NC(=O)NC2CCCCC2)cc1 [Glibenclamide]", "TESTED_SYSTEM": "HeLa MZ", "CATEGORY_LABEL": "1 (yes)"}

Data request: Tell me whether whole-cell filipin (z-score) is at least -0.3 here: Cc1cn([C@H]2C[C@H](N=[N+]=[N-])[C@@H](CO)O2)c(=O)[nH]c1=O [Zidovudine, AZT]
Data returned: 1 (yes)

Data request: Tell me whether whole-cell filipin (z-score) is at least -0.3 here: CCCCOc1ccc(CC(=O)NO)cc1 [Bufexamac]
Data returned: 0 (no)

Data request: Tell me whether whole-cell filipin (z-score) is at least -0.3 here: CC(=O)OCC(=O)[C@@]1(O)[C@H](C)C[C@H]2[C@@H]3CCC4=CC(=O)C=C[C@]4(C)[C@@]3(F)[C@@H](O)C[C@@]21C [Dexamethasone acetate]
Data returned: 0 (no)

Data request: Tell me whether whole-cell filipin (z-score) is at least -0.3 here: CC=CC(=O)N(CC)c1ccccc1C [Crotamiton]
Data returned: 0 (no)

Data request: Tell me whether whole-cell filipin (z-score) is at least -0.3 here: COc1ccc2[nH]c([S+]([O-])Cc3ncc(C)c(OC)c3C)nc2c1 (stereo not drawn) [Omeprazole]
Data returned: 1 (yes)

====

System: A431
PROCEDURE_SUMMARY: filipin (cholesterol) integrated intensity within LBPA endosomes, Z-score; higher = more cholesterol in LBPA endosomes
EXPERIMENTAL_SETUP: compound concentration in added solution (µM; 5 µl added to 20 µl cells): 10; 18 h
Counter-ions that a name gives are not always drawn.
Listed here: items and their measured filipin (z-score).
API doc: respond with a numeric literal and nothing else, no unit.

Data request: Test system A431; read-out filipin (z-score); what value for C[C@H](CCC(=O)O)[C@H]1CC[C@H]2[C@@H]3CC[C@@H]4C[C@H](O)CC[C@]4(C)[C@H]3CC[C@]12C ?
Data returned: -0.446

Data request: Test system A431; read-out filipin (z-score); what value for Nc1nc2ccc(OC(F)(F)F)cc2s1 [Riluzole hydrochloride] ?
Data returned: -0.501

Data request: Test system A431; read-out filipin (z-score); what value for CC(C)NC[C@H](O)COc1ccc(CC(N)=O)cc1 [(S)-(-)-Atenolol] ?
Data returned: -0.513

Data request: Test system A431; read-out filipin (z-score); what value for CC(=O)/N=c1/sc(S(N)(=O)=O)nn1C [Methazolamide] ?
Data returned: -0.506

Data request: Test system A431; read-out filipin (z-score); what value for COc1ccc2c(c1)N(C[C@H](C)CN(C)C)c1ccccc1S2 [Methotrimeprazine maleat salt] ?
Data returned: 1.82
